Measured values drawn from patent US10836794B2 for this set.

Assay: Stability of liquid pharmaceutical forms (peptide 0.2 %, benzalkonium chloride 0.01 %, water) during storage; single and total impurities
Format: physicochemical
Details: stored for 3 months at +25° C.
Non-standard residues stand in square brackets, D forms with d. No end group written: not given here. Hyp = O=C(O)[C@@H]1C[C@@H](O)CN1
Criterion: Total impurities strictly under 0.5%. Met: YES. Not met: NO.

Ask: Could you please tell me whether Total impurities recorded for Thr-Lys-Pro-Arg-Pro-Phe (TKPRPF; not fully specified; printed as Thr-Lys-Pro-Arg-Pro-Phe) [hexapeptide described in RU2507212, comparison peptide, reference compound] is less than 0.5%?
Result: NO

Ask: Field: below-cutoff. Rule: recorded Total impurities strictly less than 0.5%. Subject: Thr-Lys-Pro-Arg-Pro (TKPRP; not fully specified; printed as Thr-Lys-Pro-Arg-Pro) [pentapeptide described in RU2507212, comparison peptide, reference compound]
Result: NO

Ask: Here's an entry: Thr-Lys-Pro-Arg-Pro-Gly-Pro (TKPRPGP; not fully specified; printed as Thr-Lys-Pro-Arg-Pro-Gly-Pro) [heptopeptide “Selank”, a synthetic analogue of the endogenous peptide tuftsin, reference compound] . Is its Total impurities below 0.5%?
Result: NO

Ask: is_below(Total impurities, 0.5%) for Thr-Lys-Hyp-Arg-Hyp (TK[Hyp]R[Hyp]) [pentapeptide of the invention containing hydroxyproline] ?
Result: YES

Ask: Hello, is Total impurities of the following substance strictly smaller than 0.5%? Thr-Lys-Hyp-Arg-Hyp-Phe (TK[Hyp]R[Hyp]F) [hexapeptide of the invention containing hydroxyproline]
Result: YES

====

Assay: Stability of liquid pharmaceutical forms (peptide 0.2 %, benzalkonium chloride 0.01 %, water) during storage; single and total impurities
Format: physicochemical
Settings: stored for 12 months at +4° C.
Non-standard residues stand in square brackets, D forms with d. No end group written: not given here. Hyp = O=C(O)[C@@H]1C[C@@H](O)CN1
# reported Total impurities; entries follow
Give a bare numeral; the unit % is implied.

// below: answered substances
SUBSTANCE	READING
Thr-Lys-Hyp-Arg-Hyp-Gly-Hyp (TK[Hyp]R[Hyp]G[Hyp]) [peptide according to the invention containing hydroxyproline]	0.3
Thr-Lys-Hyp-Arg-Hyp (TK[Hyp]R[Hyp]) [pentapeptide of the invention containing hydroxyproline]	0.2

Read the next record carefully.
Ask: # return recorded Total impurities for entry Thr-Lys-Pro-Arg-Pro-Gly-Pro (TKPRPGP; not fully specified; printed as Thr-Lys-Pro-Arg-Pro-Gly-Pro) [heptopeptide “Selank”, a synthetic analogue of the endogenous peptide tuftsin, reference compound]
Result: 1.7

====

Test: Stability of liquid pharmaceutical forms (peptide 0.2 %, benzalkonium chloride 0.01 %, water) during storage; single and total impurities
Assay type: physicochemical
Conditions: stored for 6 months at +25° C.
Non-standard residues stand in square brackets, D forms with d. No end group written: not given here. Hyp = O=C(O)[C@@H]1C[C@@H](O)CN1
ASSAY READOUT: Total impurities (%)
State just the number; it will be interpreted in %.

SUBSTANCE	U	Total impurities
Thr-Lys-Pro-Arg-Pro-Phe (TKPRPF; not fully specified; printed as Thr-Lys-Pro-Arg-Pro-Phe) [hexapeptide described in RU2507212, comparison peptide, reference compound]	%	3.5
Thr-Lys-Pro-Arg-Pro-Gly-Pro (TKPRPGP; not fully specified; printed as Thr-Lys-Pro-Arg-Pro-Gly-Pro) [heptopeptide “Selank”, a synthetic analogue of the endogenous peptide tuftsin, reference compound]	%	3.1
Thr-Lys-Hyp-Arg-Hyp-Phe (TK[Hyp]R[Hyp]F) [hexapeptide of the invention containing hydroxyproline]	%	0.6

Ask: Using the record for Thr-Lys-Hyp-Arg-Hyp-Gly-Hyp (TK[Hyp]R[Hyp]G[Hyp]) [peptide according to the invention containing hydroxyproline] , state its measured Total impurities.
Result: 0.9

Ask: Given Thr-Lys-Pro-Arg-Pro (TKPRP; not fully specified; printed as Thr-Lys-Pro-Arg-Pro) [pentapeptide described in RU2507212, comparison peptide, reference compound] , respond with its Total impurities.
Result: 3.0

Ask: Report Total impurities, nothing else, for this substance: Thr-Lys-Hyp-Arg-Hyp (TK[Hyp]R[Hyp]) [pentapeptide of the invention containing hydroxyproline]
Result: 0.7
